System under test: Recombinant human Aurora B (amino acids 1-344) (Homo sapiens (Human))
Measurement protocol: Aurora B kinase test (ADP Glo luminescence)
Type: biochemical
Details: read-out: AURB-inhibition IC50-value
Measure: IC50
Answer format: value, then unit.

Ask | Need IC50, item COc1cc(-c2cc3nn(C)cc3c(O[C@H](C)[C@H]3CNC(=O)C3)n2)ccc1OC1CCOCC1
Reply | 49.1 µM

###

Measured pIC50 values are reported for all entries that follow.
System under test: Recombinant human Aurora B (amino acids 1-344) (Homo sapiens (Human))
Measurement protocol: Aurora B kinase test (ADP Glo luminescence)
Assay type: biochemical
Details: Table 1; read-out: AURB-inhibition IC50-value
pIC50: −log10 of the molar value.

Smiles representation: Cc1c(-c2cc3nn(C)cc3c(O[C@H](C)[C@H]3CNC(=O)C3)n2)cnn1C
pIC50: < 4.30
//
Smiles representation: C[C@@H](Oc1nc(-c2cnn([C@H]3CC[C@H](N4CCN(C)C(=O)C4)CC3)c2)cc2nn(C)cc12)[C@H]1CNC(=O)C1
pIC50: 4.47
//
Smiles representation: C[C@@H](Oc1nc(-c2cnn(CCC(F)(F)F)c2)cc2nn(C)cc12)[C@H]1CNC(=O)C1
pIC50: 4.34

Consider the additional compound presented here.
Ask | Need pIC50, item Cc1cc(-c2cc3nn(C)cc3c(O[C@H](C)[C@H]3CNC(=O)C3)n2)ccc1N1CCCS1(=O)=O
Reply | < 4.30

###

System under test: Recombinant human Aurora B (amino acids 1-344) (Homo sapiens (Human), UniProt Q96GD4)
Sequence (Q96GD4 whole entry, the tested form may be a part): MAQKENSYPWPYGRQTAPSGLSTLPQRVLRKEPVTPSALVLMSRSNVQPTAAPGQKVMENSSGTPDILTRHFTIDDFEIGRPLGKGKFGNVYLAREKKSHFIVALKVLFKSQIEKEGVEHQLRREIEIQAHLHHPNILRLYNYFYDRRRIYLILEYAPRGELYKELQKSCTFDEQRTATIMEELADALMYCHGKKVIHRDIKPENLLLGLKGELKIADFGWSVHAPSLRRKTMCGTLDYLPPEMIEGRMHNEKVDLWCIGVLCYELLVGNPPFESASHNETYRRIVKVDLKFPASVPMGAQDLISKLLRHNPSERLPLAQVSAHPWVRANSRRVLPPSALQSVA
Measurement protocol: Aurora B kinase test (ADP Glo luminescence)
Type: biochemical
Details: Table 1; read-out: AURB-inhibition IC50-value
Measure: IC50

Here are 10 molecules together with their reported answers.
Molecule: CC(C)Oc1ccc(-c2cc(O[C@H](C)[C@H]3CNC(=O)C3)c3cn(C)nc3c2)cn1 [Example 27]
IC50: > 50 µM
//
Molecule: C[C@@H](Oc1nc(-c2cnn(C3CCN(C)CC3)c2)cc2nn(C)cc12)[C@H]1CNC(=O)C1 [Example 82]
IC50: > 50 µM
//
Molecule: Cc1ccc(-c2cc3nn(C)cc3c(O[C@H](C)[C@H]3CNC(=O)C3)n2)s1 [Example 54]
IC50: > 50 µM
//
Molecule: C[C@@H](Oc1nc(-c2cnn(C)c2)cc2nn(C)cc12)[C@H]1CNC(=O)C1 [Example 63]
IC50: > 50 µM
//
Molecule: C[C@@H](Oc1nc(-c2cc3nn(C)cc3c(=O)[nH]2)cc2nn(C)cc12)[C@H]1CNC(=O)C1 [Example 13]
IC50: > 50 µM
//
Molecule: C[C@@H](Oc1nc(-c2cc3cccc(Cl)c3[nH]2)cc2nn(C)cc12)[C@H]1CNC(=O)C1 [Example 77]
IC50: 43.4 µM
//
Molecule: C[C@@H](Oc1cc(-c2cc3cccc(Cl)c3[nH]2)cc2nn(C)cc12)[C@H]1CNC(=O)C1 [Example 48]
IC50: > 50 µM
//
Molecule: Cc1nccn1Cc1ccc(-c2cc3nn(C)cc3c(O[C@H](C)[C@H]3CNC(=O)C3)n2)cc1 [Example 17]
IC50: > 50 µM
//
Molecule: C[C@@H](Oc1nc(-c2cc3nn(C)cc3c(O[C@H](C)[C@H]3CNC(=O)C3)n2)cc2nn(C)cc12)[C@@H]1CNC(=O)C1 [Example 11]
IC50: > 50 µM
//
Molecule: C[C@@H](Oc1nc(-c2ccc(N3CCOCC3)nc2)cc2nn(C)cc12)[C@H]1CNC(=O)C1 [Example 66]
IC50: > 50 µM

Ask | Notebook: pull reported IC50 for Recombinant human Aurora B (amino acids 1-344) (Homo sapiens (Human), UniProt Q96GD4), entry Cc1nn(C)cc1-c1cc2nn(C)cc2c(O[C@H](C)[C@H]2CNC(=O)C2)n1 [Example 68]
Reply | > 50 µM

Ask | Same for C[C@@H](Oc1nc(-c2cnn(C3CCCCO3)c2)cc2nn(C)cc12)[C@H]1CNC(=O)C1 (stereo partly shown) [Example 3]
Reply | > 50 µM

Ask | Same for COc1ccc2[nH]cc(-c3cc4nn(C)cc4c(O[C@H](C)[C@H]4CNC(=O)C4)n3)c2c1 [Example 53]
Reply | > 50 µM
